Target or system Serine/threonine-protein kinase PLK4 (Homo sapiens) (UniProt O00444); recorded quantity ΔTm.
Field: numeric (°C). Do not append units.

Example results:
**Q:** // ΔTm lookup, key: `O=C(Nc1cccc(Nc2cc(Nc3cccc(C(F)(F)F)c3)ncn2)c1)C1CC1`
**A:** 2

**Q:** Now this one: `O=c1cc(N2CCOCC2)oc2c(-c3ccccc3)cccc12`
**A:** 0

**Q:** And for `O=C1Nc2ccc(I)cc2/C1=C\c1cc(Br)c(O)c(Br)c1` ?
**A:** 1.3

**Q:** Another compound to check: `O=C(O)/C=C/c1cc(CO)ccc1CO`
**A:** 1

**Q:** What do we get for `NC1=N/C(=C2/CCNC(=O)c3[nH]ccc32)C(=O)N1` ?
**A:** 0.9

**Q:** Moving on to the next compound: `Clc1ccc(Nc2nnc(Cc3ccncc3)c3ccccc23)cc1`
**A:** 0.4

**Q:** Please give the result for `CC(C)(C)n1nc(-c2cccc3ccccc23)c2c(N)ncnc21` too.
**A:** 1.1

**Q:** Same lookup for `COc1cc(OC)c(/C=C2\C(=O)Nc3ccccc32)c(OC)c1` , please.
**A:** 0.3

**Q:** Okay, and C[S+]([O-])c1ccc(CSc2nc(-c3ccc(F)cc3)c(-c3ccncc3)[nH]2)cc1 (stereo unspecified) ?
**A:** 0.3

**Q:** And then `CCOC(=O)c1c(C)[nH]c(/C=C2\C(=O)Nc3ccccc32)c1C` , what is it?
**A:** 2.3

Next:
**Q:** Any idea what ΔTm was measured for O=C1c2ccccc2-[n+]2ccc3c([nH]c4ccccc43)c21 [FASCAPLYSIN CHLORIDE] ?
**A:** -0.1

**Q:** Now consider `COc1cc(/C=C/C(=O)CC(=O)/C=C/c2ccc(O)c(OC)c2)ccc1O` and answer again.
**A:** 3.3

**Q:** Also, `Cc1nc2sccn2c(=O)c1CCN1CCC(=C(c2ccccc2)c2ccc(F)cc2)CC1` please.
**A:** 2.8

====

system name: Serine/threonine-protein kinase 17A (Homo sapiens)
Entries whose ΔTm is below 0.2 °C take label 1; entries at or above 0.2 °C take label 0.

Some solved entries appear below for comparison.
**Q:** Regarding C[S+]([O-])c1ccc(-c2nc(-c3ccc(F)cc3)c(-c3ccncc3)[nH]2)cc1 (stereo not given) [SB-203580] , kindly confirm whether its ΔTm is beneath 0.2 °C.
**A:** label 1

**Q:** Also, `Cc1nc(N)sc1-c1ccnc(Nc2cccc([N+](=O)[O-])c2)n1` please.
**A:** label 0

**Q:** Same question for `O=C1Nc2ccccc2/C1=C\c1ccc[nH]1` please.
**A:** label 0

We next turn to a different molecule, shown below.
**Q:** Item `O=C1Nc2ccccc2/C1=C1/Nc2ccccc2/C1=N\O` : ΔTm beneath 0.2 °C, strictly?
**A:** label 0

====

Record: ΔTm reported on Calcium/calmodulin-dependent protein kinase type 1D (Homo sapiens) (UniProt Q8IU85).
Sequence (Q8IU85 whole entry, looked up): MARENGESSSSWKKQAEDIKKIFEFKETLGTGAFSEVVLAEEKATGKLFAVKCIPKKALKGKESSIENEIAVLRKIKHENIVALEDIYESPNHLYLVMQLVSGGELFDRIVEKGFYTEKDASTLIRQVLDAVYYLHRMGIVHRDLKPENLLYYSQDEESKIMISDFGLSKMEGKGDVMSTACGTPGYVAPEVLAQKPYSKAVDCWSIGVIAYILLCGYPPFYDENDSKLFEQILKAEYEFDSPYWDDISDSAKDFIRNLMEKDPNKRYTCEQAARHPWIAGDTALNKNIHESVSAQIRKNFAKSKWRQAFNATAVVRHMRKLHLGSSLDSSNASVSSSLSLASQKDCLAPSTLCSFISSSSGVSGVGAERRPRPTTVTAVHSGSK
Please give the number followed by its unit.

Reference set (5 entries):
**Q:** What measured ΔTm is associated with `CCN1/C(=C/C(C)=O)Sc2ccc(OC)cc21` on Calcium/calmodulin-dependent protein kinase type 1D (Homo sapiens) (UniProt Q8IU85)?
**A:** 0 °C

**Q:** Next entry: `Cn1cc(C2=C(c3cn(CCCN)c4ccccc34)C(=O)NC2=O)c2ccccc21`
**A:** 0.3 °C

**Q:** Try this compound next: `C/C(O)=C(\C#N)C(=O)Nc1cc(Br)ccc1Br`
**A:** 0.3 °C

**Q:** Another compound to check: `O=c1c(O)c(-c2ccc(O)c(O)c2)oc2cc(O)cc(O)c12`
**A:** 2.9 °C

**Q:** What about O=C1c2ccccc2-[n+]2ccc3c([nH]c4ccccc43)c21 [FASCAPLYSIN CHLORIDE] ?
**A:** -4.3 °C

Next:
**Q:** Report ΔTm for `O=C1Nc2ccc(I)cc2/C1=C\c1cc(Br)c(O)c(Br)c1` tested on Calcium/calmodulin-dependent protein kinase type 1D (Homo sapiens) (UniProt Q8IU85).
**A:** -0.1 °C

====

Tested on: HUVEC
assay remarks: Inhibition of serum-induced proliferation in HUVEC
Type: functional, cell-based
stated conditions: Homo sapiens
pIC50: −log10 of the molar value.
measured quantity: pIC50

**Q:** # query: pIC50 of entry `CN1CCc2[nH]c(=S)c(C#N)c(-c3cccs3)c2C1`
**A:** > 5.10

====

Form: system (3-phosphoinositide-dependent protein kinase 1 (Homo sapiens)), quantity (ΔTm), values below.
Field: numeric (°C). Do not append units.

**Q:** Would you mind telling me what ΔTm value was observed for `O=c1cc(N2CCOCC2)oc2c(-c3ccccc3)cccc12` ?
**A:** 0

Next:
**Q:** Quick one: ΔTm of C[S+]([O-])c1ccc(-c2nc(-c3ccc(F)cc3)c(-c3ccncc3)[nH]2)cc1 (configuration not stated) ?
**A:** -0.1

**Q:** Lookup `O=C1NC(=O)C(c2c[nH]c3ccccc23)=C1c1c[nH]c2ccccc12`
**A:** 0

====

Let's go through some ΔTm measurements on Serine/threonine-protein kinase 16 (Homo sapiens) (UniProt O75716) together.
Sequence (O75716 whole entry): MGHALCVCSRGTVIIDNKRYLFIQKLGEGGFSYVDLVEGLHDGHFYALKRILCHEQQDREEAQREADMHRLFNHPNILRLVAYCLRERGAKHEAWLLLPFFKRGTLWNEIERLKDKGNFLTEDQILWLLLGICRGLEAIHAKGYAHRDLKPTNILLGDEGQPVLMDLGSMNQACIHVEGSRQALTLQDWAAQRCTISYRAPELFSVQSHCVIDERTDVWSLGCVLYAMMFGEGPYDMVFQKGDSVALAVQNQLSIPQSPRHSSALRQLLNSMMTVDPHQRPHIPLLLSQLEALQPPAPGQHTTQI
Report as: number unit

Recorded ΔTm, per entry:
**Q:** // returns reported ΔTm for input `Nc1n[nH]c2nc3ccccc3nc12`
**A:** 1.1 °C

**Q:** Here is the next compound: `CN(C)c1ncnc2nc[nH]c12`
**A:** 0.5 °C

**Q:** Another compound to check: `O=C(O)c1cc(NCc2cc(O)ccc2O)ccc1O`
**A:** 0.5 °C

**Q:** Request: `CC(C)(C)n1nc(-c2ccc(Cl)cc2)c2c(N)ncnc21`
**A:** 1 °C

For the next question, use this compound.
**Q:** Return reported ΔTm; argument: `COc1ccc(CNc2nc(N(CCO)CCO)nc3c2ncn3C(C)C)cc1`
**A:** 2.3 °C

====

system name: Casein kinase I isoform gamma-3 (Homo sapiens) (UniProt Q9Y6M4)
Sequence (Q9Y6M4 whole entry, looked up, canonical isoform): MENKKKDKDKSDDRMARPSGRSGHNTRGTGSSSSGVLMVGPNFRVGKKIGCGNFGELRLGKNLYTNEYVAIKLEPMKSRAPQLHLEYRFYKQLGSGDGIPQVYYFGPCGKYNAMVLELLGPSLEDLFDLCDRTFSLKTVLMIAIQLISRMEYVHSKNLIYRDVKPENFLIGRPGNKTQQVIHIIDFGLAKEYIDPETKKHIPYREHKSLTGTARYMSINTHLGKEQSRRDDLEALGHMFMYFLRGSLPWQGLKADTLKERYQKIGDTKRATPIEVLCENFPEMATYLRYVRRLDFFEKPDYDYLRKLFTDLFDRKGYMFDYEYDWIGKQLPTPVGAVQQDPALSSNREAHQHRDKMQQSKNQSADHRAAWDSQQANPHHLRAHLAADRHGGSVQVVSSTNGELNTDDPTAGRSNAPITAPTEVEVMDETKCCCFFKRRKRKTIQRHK
ΔTm strictly under 0.8 °C means label 1; at 0.8 °C or over means label 0.

Examples with answers:
**Q:** In plain terms, does `c1ccc(-c2n[nH]c3c2oc2ccccc23)cc1` come in under 0.8 °C for ΔTm?
**A:** label 1

**Q:** Same question, `O=C1Nc2ccc(I)cc2/C1=C\c1cc(Br)c(O)c(Br)c1` this time
**A:** label 1

**Q:** Next record, please: `O=C1Nc2ccc(S(=O)(=O)O)cc2/C1=C1/Nc2ccccc2/C1=N\O`
**A:** label 0

**Q:** Try this molecule next: `CC(C)N(CCO)c1nc(Nc2cccc(Cl)c2)c2ncn(C(C)C)c2n1`
**A:** label 0

**Q:** And the next one, `Nc1cccc(-c2cc3c(Oc4cccc(O)c4)ncnc3[nH]2)c1` ?
**A:** label 0

---
**Q:** Is 0.8 °C strictly greater than the molecule's reported ΔTm? molecule: CN1CCC(Nc2ncc3ncnc(Nc4ccc(F)c(Cl)c4)c3n2)CC1 [FALNIDAMOL]
**A:** label 1

**Q:** Same question, Nc1n[nH]c2nc3ccccc3nc12 [QUINOXALINE1] this time
**A:** label 1

**Q:** // same read-out, input: `CC(C)(C)n1nc(-c2cccc3ccccc23)c2c(N)ncnc21`
**A:** label 1

**Q:** Do the same for `Oc1cccc(-c2nc(N3CCOCC3)c3oc4ncccc4c3n2)c1` please
**A:** label 1

**Q:** What about this molecule? CC(C)[C@H](CO)Nc1nc(Nc2cc(N)cc(Cl)c2)c2ncn(C(C)C)c2n1 [AMINOPURVALANOL]
**A:** label 0

====

system name: Platelet-derived growth factor receptor (Homo sapiens, UniProt P09619+P16234)
assay remarks: Inhibition of PDGF
pIC50: −log10 of the molar value.
measured quantity: pIC50

**Q:** Param readout= pIC50; system= Platelet-derived growth factor receptor (Homo sapiens, UniProt P09619+P16234); entry= `CCOC(=O)c1c(C)[nH]c(/C=C2\C(=O)Nc3ccccc32)c1C` ; returns value.
**A:** < 4.00

====

Observed ΔTm values for Serine/threonine-protein kinase PLK1 (Homo sapiens) (UniProt P53350) are listed in what follows.
# number only, unit °C dropped from output

**Q:** Can you share its ΔTm? I mean this compound: `N#C/C(=C\c1ccc(O)c(O)c1)C(=O)Nc1ccccc1`
**A:** 0.7

**Q:** Likewise for `NC(=O)c1ccc(-c2nc(-c3ccc4c(c3)OCCO4)c(-c3ccccn3)[nH]2)cc1` ?
**A:** -0.5

**Q:** And the next one, `C/C(O)=C(\C#N)C(=O)Nc1cc(Br)ccc1Br` ?
**A:** 1.3

**Q:** Proceed to `CC(C)(C)n1nc(-c2ccc(Cl)cc2)c2c(N)ncnc21`
**A:** 0.9

**Q:** What about `COc1ccc(CNC(=O)Nc2ncc([N+](=O)[O-])s2)cc1` ?
**A:** 0.7

Then there is this compound:
**Q:** Find the recorded ΔTm belonging to `O=C1Nc2ccccc2/C1=C1/Nc2ccccc2/C1=N\O` and report it.
**A:** 1.6
